System: LOX IMVI melanoma
RUN_DESCRIPTION: NCI tumour cell line growth inhibition, 48 h
READOUT_NAME: TGI

Look over these answered cases.
MOLECULE: Nc1ccnc(=O)[nH]1
MEAS_VALUE: > 100 µM

MOLECULE: C[C@]12C=CC(=O)C=C1CC[C@@H]1[C@@H]2CC[C@]2(C)OC(=O)CC[C@@H]12
MEAS_VALUE: > 500 µM

MOLECULE: O=c1c2c(oc3ccccc13)-c1ccccc1OC2
MEAS_VALUE: > 100 µM

MOLECULE: C/C(CC(=O)Nc1ccc([N+](=O)[O-])cc1)=N\NC(N)=O
MEAS_VALUE: > 100 µM

MOLECULE: NN(CC(=O)O)CC(=O)O
MEAS_VALUE: > 100 µM

Reported TGI of COc1cc([C@@H]2OC[C@@H]3C(c4cc(OC)c5c(c4)OCO5)OC[C@@H]32)cc(OC)c1OC (stereo partly drawn) : > 100 µM

Reported TGI of CCOC(=O)C1=C(C)OC2(O)C=CC(O)=C3C(=O)N(c4ccccc4)C(=O)C312 (stereo not drawn) : 52.9 µM

Reported TGI of COc1ccc(/C(COc2ccc3c(=O)cc(-c4ccccc4)oc3c2)=N\O)cc1 : 24.4 µM

Reported TGI of CN1C(=Nc2ccccc2)SC1=Nc1ccccc1 : > 100 µM

Reported TGI of COc1ccc2n[se]nc2c1 : > 100 µM

Reported TGI of CN1CCc2[nH]c3ccccc3c2C1 : > 100 µM

Reported TGI of COc1ccc(Nc2nnc(-c3nsc4ccccc34)s2)cc1 : > 100 µM

Reported TGI of CC(C)(C)c1ccc(Oc2nccc(-c3c(-c4ccc(F)cc4)ncn3C3CCNCC3)n2)cc1 : 7.49 µM

Reported TGI of CSc1nc(C#N)c(/N=C\N(C)C)n1C : > 100 µM

Reported TGI of CC1=NN(C(=O)c2ccccc2O)C(=O)/C1=C/c1ccco1 : > 75.5 µM

Reported TGI of CCN(CC)c1c(C(=O)/C=C/c2ccc(OC)cc2)c(-c2ccccc2)nn(C)c1=O : 44.9 µM

Reported TGI of O=C1/C(=C\c2ccc(O)cc2)CCC/C1=C/c1ccc(Cl)c(Cl)c1 : 3.62 µM

Reported TGI of Oc1c(C(Nc2cccc3cccnc23)c2ccccc2)ccc2cccnc12 (stereo not drawn) : > 100 µM

----------
Listed next: entries and their corresponding TGI.
Tested on: HOP-92 NSCLC
RUN_DESCRIPTION: NCI tumour cell line growth inhibition, 48 h
Numbers only here, please. The scale is µM.

Look over these answered cases.
COMPOUND: CN(CCCn1c2c(c3ccccc3c1=O)C(=O)c1ccccc1-2)CCCn1c2c(c3ccccc3c1=O)C(=O)c1ccccc1-2
UNIT_TAG: µM
MEAS_VALUE: 1.9
--
COMPOUND: Cc1ccc(S(=O)(=O)OC2CSS(=O)CC2OS(=O)(=O)c2ccc(C)cc2)cc1 (stereo unspecified)
UNIT_TAG: µM
MEAS_VALUE: 25.9
--
COMPOUND: Nc1ncnn2c(C3OC(CO)C(O)C3O)ccc12 (stereo unspecified)
UNIT_TAG: µM
MEAS_VALUE: 0.431
--
COMPOUND: Cc1cccc(C)c1NC(=O)C(C#N)C1=C(Cl)C(=O)c2ccccc2C1=O (stereo unspecified)
UNIT_TAG: µM
MEAS_VALUE: 22.4

Reported TGI of NC1=C(NC(=O)Cc2ccc(F)cc2)C(=O)c2ccccc2C1=O : 64.3

----------
Tested on: HCT-15 colon
RUN_DESCRIPTION: NCI tumour cell line growth inhibition, 48 h; in the data active means GI50 below about 0.43 µM; inactive means the rest
Answer with one of the outcomes given here: 1 = active, -1 = inactive

SMILES: COc1cc([N+](=O)[O-])c(OC)cc1-c1nc2sc(Cl)cn2c1/C(N)=N/C(=N)N
LABEL_CLASS: -1

Status in this test for CCN(CC)CCCCNc1c2ccccc2[n+](C)c2c1[nH]c1ccccc12 ? -1

Status in this test for O=C([CH-]C(=O)c1ccccc1)c1ccccc1.O=C([CH-]C(=O)c1ccccc1)c1ccccc1.[La+3].[OH-].[OH3+] ? -1

Status in this test for COC(=O)c1nc(-c2ccccc2)oc1S(=O)(=O)Cc1ccccc1 ? -1

Status in this test for CC(C)N(Cc1ccccc1)c1c(S)ssc1=S ? -1

----------
Tested on: M14 melanoma
RUN_DESCRIPTION: NCI tumour cell line growth inhibition, 48 h; in the data active = GI50 below about 0.43 µM; inactive = the rest
Answer with one of the outcomes given here: active, inactive

Reference set, count: 6
COMPOUND: COc1cc2c(c(OC)c1OC)-c1ccc(SC)c(=O)cc1C(CO)C2 (stereo not given)
LABEL_CLASS: active
--
COMPOUND: O=[N+]([O-])O.[Cu+2].[NH-]CC[NH-].[NH-]CC[NH-]
LABEL_CLASS: inactive
--
COMPOUND: CN(CCCn1c2c(c3ccccc3c1=O)C(=O)c1ccccc1-2)CCCn1c2c(c3ccccc3c1=O)C(=O)c1ccccc1-2
LABEL_CLASS: inactive
--
COMPOUND: COc1ccc(/C(COc2ccc3c(=O)cc(-c4ccccc4)oc3c2)=N\O)cc1
LABEL_CLASS: inactive
--
COMPOUND: COc1ccc2c(c1)c(=O)oc1cc(OC/C(C)=N\O)ccc12
LABEL_CLASS: inactive
--
COMPOUND: C=C(C)C(=O)Nc1ccc(NC(C)C)cc1
LABEL_CLASS: inactive

Status in this test for CC1CCC(NC(=O)N(CCCl)N=O)CC1 (stereo not given) ? inactive

Status in this test for CC(C)[C@H](N)C(=O)N1CCC[C@H]1B(O)O ? inactive

Status in this test for CCN(CC)CCCCNc1c2ccccc2[n+](C)c2c1[nH]c1ccccc12 ? inactive

Status in this test for COc1cc(C[C@H]2c3cc(OC)c(OC)cc3CCN2C)c(Oc2cc3c(cc2OC)-c2c(OC)c(OC)cc4c2[C@H](C3)N(C)CC4)cc1OC ? inactive

----------
Tested on: NCI-H460 lung
RUN_DESCRIPTION: NCI tumour cell line growth inhibition, 48 h
Outcome label depends on TGI relative to 30 µM: at/above gives YES, below gives NO.

Reference set, count: 3
MOLECULE: COc1cc2c(oc(=O)c3c4oc([Si](C)(C)C)cc4cc(OC)c23)c2cccc(OCc3ccccc3)c12
LABEL_CLASS: YES
//
MOLECULE: COc1ccc2cc(C(=O)/C=C/c3ccc(Cl)cc3Cl)ccc2c1
LABEL_CLASS: YES
//
MOLECULE: C#Cc1c(F)ccc2cc(O)cc(-c3ncc4c(N5CC6CCC(C5)N6)nc(OC[C@@]56CCCN5C[C@H](F)C6)nc4c3F)c12
LABEL_CLASS: NO

// inclusive: TGI at least 30 µM? input: COc1cc(OC(=O)c2ccccc2)cc2c1C(=O)C=CC2=O YES

// inclusive: TGI at least 30 µM? input: COC(=O)C1(CCC(C)=O)CCCCCC1=O (stereo not given) YES

// inclusive: TGI at least 30 µM? input: CCN(CC)c1c(C(=O)/C=C/c2ccc(OC)cc2)c(-c2ccccc2)nn(C)c1=O YES

// inclusive: TGI at least 30 µM? input: COC(=O)C1(C(=O)OC)Cc2ccc(OC)cc2C2=C1C(=O)c1ccccc1C2=O YES

// inclusive: TGI at least 30 µM? input: CC(C)(C)c1ccc(Oc2nccc(-c3c(-c4ccc(F)cc4)ncn3C3CCNCC3)n2)cc1 NO

// inclusive: TGI at least 30 µM? input: NN(CC(=O)O)CC(=O)O YES

----------
System: OVCAR-5 ovarian
RUN_DESCRIPTION: NCI tumour cell line growth inhibition, 48 h
Listed next: entries and their corresponding GI50.

Look over these answered cases.
COMPOUND: COc1ccc2c(c1)c(=O)oc1cc(OC/C(C)=N\O)ccc12
TARGET_OR_SYSTEM: OVCAR-5 ovarian
GI50: > 100 µM
--
COMPOUND: Cc1cc(O)c(C(C)C)cc1S(=O)(=O)O (tested in a mixture with another compound)
TARGET_OR_SYSTEM: OVCAR-5 ovarian
GI50: 0.727 µM
--
COMPOUND: COc1cc(CSc2nc3ccc(C)cc3c(=O)n2-c2ccccc2)cc(OC)c1OC
TARGET_OR_SYSTEM: OVCAR-5 ovarian
GI50: 6.26 µM

Reported GI50 of Cc1nn2c(/C=C3\C(=O)Nc4ccc(Cl)cc43)c(C)nc2s1 : > 100 µM

Reported GI50 of O=[N+]([O-])O.[Cu+2].[NH-]CC[NH-].[NH-]CC[NH-] : > 10 µM

Reported GI50 of CN(O)c1nc(N(C)O)nc(N2CCOCC2)n1 : 41.2 µM

Reported GI50 of CCC(C)(CC(C)(C)C(=O)NCC(=O)NC(Cc1ccccc1)C(=O)NC(Cc1ccccc1)C(=O)NCC(=O)NC1CC(OC2CC(O)(C(=O)CO)Cc3c(O)c4c(c(O)c32)C(=O)c2c(OC)cccc2C4=O)OC(C)C1O)C(=O)NCC(C)O (centres undefined) : > 150 µg/mL

Reported GI50 of CCC[CH2][Sn]1([CH2]CCC)[O]C(=O)c2cccnc2[O]1 : 11.9 µM

Reported GI50 of COc1ccc(-c2c[nH]c(C(=O)O)c2-c2cc(OC)c(OC)c(OC)c2)cc1 : 9.98 µM

# credit: PubChem BioAssay (NCI)
